Taken from patent US8916681B2.

Below is a list of entries, each paired with its recorded IC50 value.
experimental.target: GPR54 (Homo sapiens)
method.description: Inositol phosphate (IP) antagonism assay: inhibition of 10 nM kisspeptin-10 stimulation of IP in CHO/gpr-54 cells
experimental.setup: CHO cells; 10 nM kisspeptin-10; unit inferred, given in M
Non-standard residues stand in square brackets, D forms with d. Residues, ends and D or L forms follow the SMILES beside them.

compound	experimental.target	reported.relation	IC50 / nM
CC(=O)N[C@H](C)C(=O)N[C@@H](CC(N)=O)C(=O)N[C@@H](Cc1c[nH]c2ccccc12)C(=O)N[C@@H](CC(N)=O)C(=O)N1CCC[C@H]1C(=O)N[C@@H](Cc1ccccc1)C(=O)NCC(=O)N[C@H](Cc1c[nH]c2ccccc12)C(=O)N[C@@H](CCCNC(=N)N)C(=O)N[C@@H](Cc1ccccc1)C(N)=O [Peptide 274] (Ac-[dA]NWNPFG[dW]RF-NH2)	GPR54 (Homo sapiens)	=	0.1
CC(=O)N[C@@H](Cc1ccccc1)C(=O)NCC(=O)N[C@H](Cc1c[nH]c2ccccc12)C(=O)N[C@@H](CCCNC(=N)N)C(=O)N[C@@H](Cc1ccccc1)C(N)=O [Peptide 206] (Ac-FG[dW]RF-NH2)	GPR54 (Homo sapiens)	=	10
CC(C)C[C@H](NC(=O)CNC(=O)[C@H](Cc1ccccc1)NC(=O)CNC(=O)[C@H](CC(N)=O)NC(=O)[C@H](Cc1c[nH]c2ccccc12)NC(=O)[C@H](CC(N)=O)NC(=O)[C@@H](N)Cc1ccc(O)cc1)C(=O)N[C@@H](CCCNC(=N)N)C(=O)N[C@@H](Cc1ccccc1)C(N)=O [Peptide 208] (H-YNWNGFGLRF-NH2)	GPR54 (Homo sapiens)	=	1000
CC(C)C[C@H](NC(=O)CNC(=O)[C@@H](Cc1c[nH]c2ccccc12)NC(=O)CNC(=O)[C@H](CC(N)=O)NC(=O)[C@H](Cc1c[nH]c2ccccc12)NC(=O)[C@H](CC(N)=O)NC(=O)[C@@H](N)Cc1ccc(O)cc1)C(=O)N[C@@H](CCCNC(=N)N)C(=O)N[C@@H](Cc1ccccc1)C(N)=O [Peptide 212] (H-YNWNG[dW]GLRF-NH2)	GPR54 (Homo sapiens)	<	0.1

* * *

Below is a list of entries, each paired with its recorded Inhibition of IP stimulation by 10 nM Agonist: % Inhibition of Max value.
experimental.target: GPR54 (Homo sapiens, UniProt Q969F8)
Sequence (Q969F8 whole entry): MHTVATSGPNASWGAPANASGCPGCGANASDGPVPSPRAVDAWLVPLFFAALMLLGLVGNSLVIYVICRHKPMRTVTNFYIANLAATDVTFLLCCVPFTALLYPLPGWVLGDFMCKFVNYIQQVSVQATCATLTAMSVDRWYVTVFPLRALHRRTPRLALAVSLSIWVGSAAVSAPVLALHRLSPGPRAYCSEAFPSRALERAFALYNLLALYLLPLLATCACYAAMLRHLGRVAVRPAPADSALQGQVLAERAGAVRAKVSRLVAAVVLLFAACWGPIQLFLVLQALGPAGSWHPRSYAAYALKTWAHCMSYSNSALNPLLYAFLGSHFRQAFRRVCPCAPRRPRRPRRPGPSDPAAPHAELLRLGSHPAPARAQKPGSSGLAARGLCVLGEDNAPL
method.description: Inositol phosphate (IP) antagonism assay: inhibition of 10 nM kisspeptin-10 stimulation of IP in CHO/gpr-54 cells
Assay type: cell-based
Design: G. Vassart, Univ; Brussels
experimental.setup: CHO cells; 10 nM kisspeptin-10
Non-standard residues stand in square brackets, D forms with d. Residues, ends and D or L forms follow the SMILES beside them.
assay.endpoint: Inhibition of IP stimulation by 10 nM Agonist: % Inhibition of Max (%)

compound	unit.symbol	measured
CC(=O)N[C@H](C)C(=O)N[C@@H](CC(N)=O)C(=O)N[C@@H](Cc1c[nH]c2ccccc12)C(=O)N[C@@H](CC(N)=O)C(=O)NCC(=O)N[C@@H](Cc1ccccc1)C(=O)NCC(=O)N[C@H](CC(C)C)C(=O)N[C@@H](CCCNC(=N)N)C(=O)N[C@@H](Cc1ccccc1)C(N)=O [Peptide 276] (Ac-[dA]NWNGFG[dL]RF-NH2)	%	65
CC(C)C[C@H](NC(=O)CNC(=O)[C@H](Cc1ccccc1)NC(=O)[C@H](CO)NC(=O)[C@H](CC(N)=O)NC(=O)[C@H](Cc1c[nH]c2ccccc12)NC(=O)[C@H](CC(N)=O)NC(=O)[C@@H](N)Cc1ccc(O)cc1)C(=O)N[C@@H](CCCNC(=N)N)C(=O)N[C@@H](Cc1c[nH]c2ccccc12)C(N)=O [Peptide 187] (H-YNWNSFGLRW-NH2)	%	36
CC(=O)N[C@H](C)C(=O)N[C@@H](CC(N)=O)C(=O)N[C@@H](Cc1c[nH]c2ccccc12)C(=O)N[C@@H](CC(N)=O)C(=O)N1CCC[C@@H]1C(=O)N[C@@H](Cc1ccccc1)C(=O)NCC(=O)N[C@H](Cc1c[nH]c2ccccc12)C(=O)N[C@@H](CCCNC(=N)N)C(=O)N[C@@H](Cc1ccccc1)C(N)=O [Peptide 275] (Ac-[dA]NWN[dP]FG[dW]RF-NH2)	%	44
CC(=O)N[C@H](C)C(=O)N[C@@H](CC(N)=O)C(=O)N[C@@H](Cc1c[nH]c2ccccc12)C(=O)N[C@@H](CC(N)=O)C(=O)NCC(=O)N[C@@H](Cc1ccccc1)C(=O)NCC(=O)N[C@@H](Cc1c[nH]c2ccccc12)C(=O)N[C@@H](CCCNC(=N)N)C(=O)N[C@@H](Cc1ccccc1)C(N)=O [Peptide 248] (Ac-[dA]NWNGFGWRF-NH2)	%	64
CC(=O)N[C@@H](Cc1ccccc1)C(=O)NCC(=O)N[C@@H](CC(C)C)C(=O)N[C@@H](CCCNC(=N)N)C(=O)N[C@@H](Cc1c[nH]c2ccccc12)C(N)=O [Peptide 189]	%	94
CC(=O)N[C@H](Cc1ccccc1)C(=O)N[C@@H](CC(N)=O)C(=O)N[C@@H](Cc1c[nH]c2ccccc12)C(=O)N[C@@H](CC(N)=O)C(=O)NCC(=O)N[C@@H](Cc1ccccc1)C(=O)NCC(=O)N[C@H](Cc1c[nH]c2ccccc12)C(=O)N[C@@H](CCCNC(=N)N)C(=O)N[C@@H](Cc1ccccc1)C(N)=O [Peptide 244] (Ac-[dF]NWNGFG[dW]RF-NH2)	%	60
CC(=O)N[C@@H](Cc1ccc(O)cc1)C(=O)N[C@@H](CC(N)=O)C(=O)N[C@@H](Cc1c[nH]c2ccccc12)C(=O)N[C@@H](CC(N)=O)C(=O)NCC(=O)N[C@@H](Cc1ccccc1)C(=O)NCC(=O)N[C@H](Cc1c[nH]c2ccccc12)C(=O)N[C@@H](CCCNC(=N)N)C(=O)N[C@@H](Cc1ccccc1)C(N)=O [Peptide 228] (Ac-YNWNGFG[dW]RF-NH2)	%	58
CC(=O)N[C@H](Cc1ccc(O)cc1)C(=O)N[C@@H](CC(N)=O)C(=O)N[C@@H](Cc1c[nH]c2ccccc12)C(=O)N[C@@H](CC(N)=O)C(=O)N[C@@H](CO)C(=O)N[C@@H](Cc1ccccc1)C(=O)NCC(=O)N[C@H](Cc1c[nH]c2ccccc12)C(=O)N[C@@H](CCCNC(=N)N)C(=O)N[C@@H](Cc1ccccc1)C(N)=O [Peptide 238] (Ac-[dY]NWNSFG[dW]RF-NH2)	%	0
CC(=O)N[C@H](C)C(=O)N[C@@H](CC(N)=O)C(=O)N[C@@H](Cc1c[nH]c2ccccc12)C(=O)N[C@@H](CC(N)=O)C(=O)N[C@@H](CO)C(=O)N[C@@H](Cc1ccccc1)C(=O)NCC(=O)N[C@H](Cc1c[nH]c2ccccc12)C(=O)N[C@@H](CCCNC(=N)N)C(=O)N[C@@H](Cc1ccccc1)C(N)=O [Peptide 247] (Ac-[dA]NWNSFG[dW]RF-NH2)	%	80
